Test: qualitative solubility assessment of the synthesized quinophthalone series dye
Assay type: physicochemical
Details: organic solvent or mixture; process solvent PGMEA; read-out: solubility in PGMEA
assay_endpoint: solubility

smi=O=C1c2ccccc2C(=O)C1c1ccc2cccc(N3C(=O)c4ccccc4C3=O)c2n1 test_result="> 5 mg/mL"
smi=CCOC(=O)c1ccc2c(c1)C(=O)/C(=C1\C=Cc3cccc(N4C(=O)c5ccc(C(=O)OCC)cc5C4=O)c3N1)C2=O test_result="> 50 mg/mL"
smi=O=C1c2cccc3cccc(c23)C(=O)N1c1cccc2c1NC(=c1c(=O)c3cccc4cccc(c1=O)c43)C=C2 test_result="> 0.5 mg/mL"

With those in mind, consider the next compound.
Record request: solubility value, item CC(C)(C)c1ccc2c(c1)C(=O)/C(=C1\C=Cc3cccc(N4C(=O)c5ccc(C(C)(C)C)cc5C4=O)c3N1)C2=O
> 50 mg/mL

====

# solubility annotations
Assay: qualitative solubility assessment of the synthesized quinophthalone series dye
Assay type: physicochemical
Conditions: organic solvent or mixture; solvent CH2Cl2; read-out: solubility in CH2Cl2

Please review the following examples before continuing.
smi=O=C1c2cccc3cccc(c23)C(=O)N1c1cccc2c1NC(=c1c(=O)c3cccc4cccc(c1=O)c43)C=C2 test_result="> 0.5 mg/mL"
smi=CCOC(=O)c1ccc2c(c1)C(=O)/C(=C1\C=Cc3cccc(N4C(=O)c5ccc(C(=O)OCC)cc5C4=O)c3N1)C2=O test_result="> 50 mg/mL"
smi=CC(C)(C)c1ccc2c(c1)C(=O)/C(=C1\C=Cc3cccc(N4C(=O)c5ccc(C(C)(C)C)cc5C4=O)c3N1)C2=O test_result="> 50 mg/mL"

# input for lookup
Reported solubility for O=C1c2ccccc2C(=O)C1c1ccc2cccc(N3C(=O)c4ccccc4C3=O)c2n1 : what is it?
> 5 mg/mL
